Provide the recorded SH2 binding enrichment for the entries that follow.
- TARGET OR TEST SYSTEM: Grb2 SH2 (UniProt P62993)
- Sequence (P62993 whole entry, looked up): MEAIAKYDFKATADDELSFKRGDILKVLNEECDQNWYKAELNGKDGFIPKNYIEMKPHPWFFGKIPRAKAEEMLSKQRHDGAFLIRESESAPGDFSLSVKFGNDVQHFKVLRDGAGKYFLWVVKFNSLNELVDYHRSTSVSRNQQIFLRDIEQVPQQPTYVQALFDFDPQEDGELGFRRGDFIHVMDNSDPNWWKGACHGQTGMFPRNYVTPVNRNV
- ASSAY DETAILS: SH2 binding enrichment of the phosphorylated peptide, bacterial display (enrichment ratio); higher = better substrate or ligand; peptides without Tyr show the background
Give bare numbers.

// below: answered sequences
{"columns": ["SEQUENCE CONTENT", "SH2 binding enrichment"],
 "data": [
  ["QPGTDYKIFLF [FN1_Y1970_YF]", 0.609],
  ["CEHFSYFGMKA [SLC15A2_Y60_R57H_YF]", 0.801]
]}

Okay, here is my list. What is SH2 binding enrichment for each of these?
1. DYLEKYYKFGC [NNMT_Y24_S29C]
2. VERRVYAEDPY [PCCA_Y401_C398R]
3. FLEEEYVKAVG [TF_Y674_G671E_YF]
4. TNYPLYLRSLE [MTM1_Y71_R69P]

1. 0.611
2. 0.89
3. 1.08
4. 0.96

Okay, here is my list. What is SH2 binding enrichment for each of these?
1. LQTFHYHGHSM [PDHA1_Y289_R288H_YF]
2. THPFLYLTLEI [MLH1_Y293_S295T]
3. QGQHWYSSSDT [CASP10_Y9_K14T]
4. YSNVLYRPRGP [TMIGD2_Y197_A202P]
5. WQQQSYLDFGI [CTNNB1_Y30_S33F]

1: 1.47; 2: 0.873; 3: 0.827; 4: 0.717; 5: 0.999

Okay, here is my list. What is SH2 binding enrichment for each of these?
1. DTCPPYVLSQV [GJB4_Y237_G242V]
2. HESEIYCKVCF [CSRP3_Y57_YF]
3. RHRSGYVLIAM [EFR3A_Y73]
4. LKVDVYGRSHK [FUT3_Y222]
5. FLKDVYVDSKD [NDUFAF4_Y69]

1: 0.77; 2: 1.44; 3: 2.09; 4: 0.715; 5: 0.848

---

- TARGET OR TEST SYSTEM: SHP2-C SH2
- ASSAY DETAILS: SH2 binding enrichment of the phosphorylated peptide, bacterial display (enrichment ratio); higher = better substrate or ligand; peptides without Tyr show the background
MEASURED PROPERTY: SH2 binding enrichment
One number for each entry.

{"columns": ["SEQUENCE CONTENT", "MEASURED PROPERTY", "DATA VALUE"],
 "data": [
  ["CLAKMYYSAVD [CP_Y539]", "SH2 binding enrichment", 0.902],
  ["YSNVLYRPRGP [TMIGD2_Y197_A202P]", "SH2 binding enrichment", 4.56],
  ["KIIATYRLCSE [DNAH3_Y1586_V1583I]", "SH2 binding enrichment", 0.611]
]}

Okay, here is my list. What is SH2 binding enrichment for each of these?
1. YGCGMYSHLQG [LGR4_Y848_D844G]
2. HNLPIYEGFAL [ACTA1_Y168_V165L_YF]
3. DTCPPYVLSQG [GJB4_Y237]
4. RLLRGYDQYAY [HLA-B_Y137_H137Y]
5. FKDGQYWIRGR [ACSF3_Y466]

[0.991, 0.721, 0.589, 0.954, 0.359]

---

- TARGET OR TEST SYSTEM: c-Src SH2
- ASSAY DETAILS: SH2 binding enrichment of the phosphorylated peptide, bacterial display (enrichment ratio); higher = better substrate or ligand; peptides without Tyr show the background
MEASURED PROPERTY: SH2 binding enrichment
Numbers only.

// below: answered sequences
{"columns": ["SEQUENCE CONTENT", "TARGET OR TEST SYSTEM", "DATA VALUE"],
 "data": [
  ["DENWFYTQAAS [RPS19_Y54_R56Q]", "c-Src SH2", 0.881],
  ["LKGIRYLTSGL [PIGA_Y82_R77L]", "c-Src SH2", 0.564],
  ["TKLKDYFIFNK [CCDC42_Y149_A144T_YF]", "c-Src SH2", 0.724]
]}

Okay, here is my list. What is SH2 binding enrichment for each of these?
1. GNLLIYTDFGK [HGD_Y166_E168D]
2. PVQAAYRKVVA [HBB_Y131_Q132R]
3. ASLLPYFPAIM [IPO4_Y518]
4. PLDGEYFTLQI [TP53_Y327]
5. GTQGSYLLSRK [UGT3A1_Y123_C121G]

1: 0.765; 2: 0.493; 3: 0.672; 4: 0.344; 5: 0.392

Okay, here is my list. What is SH2 binding enrichment for each of these?
1. QNTADYYDLYG [PTPN11_Y62_G60A]
2. AEPNIYQEKLS [USP54_Y1233_D1231N]
3. AKKVFYVIETR [SHH_Y253]
4. LARDMCDKEFF [MET_Y1230_Y1230C_YF]
5. KRLFAYKMLMA [TMC2_Y209_Q205R_YF]

1. 0.7
2. 0.808
3. 0.775
4. 0.475
5. 1.51

---

- TARGET OR TEST SYSTEM: Fes (UniProt P07332)
- Sequence (P07332 whole entry, looked up): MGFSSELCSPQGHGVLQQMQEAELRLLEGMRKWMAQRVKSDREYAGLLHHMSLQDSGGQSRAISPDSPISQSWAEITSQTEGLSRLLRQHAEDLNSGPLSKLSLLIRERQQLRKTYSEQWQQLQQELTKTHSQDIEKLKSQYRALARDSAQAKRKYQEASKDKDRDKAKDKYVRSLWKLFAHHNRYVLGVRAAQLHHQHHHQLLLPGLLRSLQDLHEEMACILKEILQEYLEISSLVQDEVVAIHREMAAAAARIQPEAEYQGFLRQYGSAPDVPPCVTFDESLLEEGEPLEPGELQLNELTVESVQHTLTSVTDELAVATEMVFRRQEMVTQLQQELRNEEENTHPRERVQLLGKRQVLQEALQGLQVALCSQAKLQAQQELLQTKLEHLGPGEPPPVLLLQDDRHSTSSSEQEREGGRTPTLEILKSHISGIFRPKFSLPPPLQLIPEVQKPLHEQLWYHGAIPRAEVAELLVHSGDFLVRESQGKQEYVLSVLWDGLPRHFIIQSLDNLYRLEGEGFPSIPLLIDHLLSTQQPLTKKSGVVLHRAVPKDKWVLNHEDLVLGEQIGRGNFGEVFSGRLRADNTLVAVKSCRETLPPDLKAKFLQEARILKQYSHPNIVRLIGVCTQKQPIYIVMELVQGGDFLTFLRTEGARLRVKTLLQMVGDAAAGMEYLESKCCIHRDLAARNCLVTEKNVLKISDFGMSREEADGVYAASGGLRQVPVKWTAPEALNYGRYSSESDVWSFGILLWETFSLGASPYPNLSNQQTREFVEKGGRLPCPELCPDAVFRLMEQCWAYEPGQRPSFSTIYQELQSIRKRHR
- ASSAY DETAILS: phosphorylation enrichment, bacterial display (enrichment ratio); higher = better substrate or ligand; peptides without Tyr show the background
MEASURED PROPERTY: phosphorylation enrichment
Answers are plain numbers.

Okay, here is my list. What is phosphorylation enrichment for each of these?
1. NTCNRYCRDEI [ITGB3_Y660]
2. PSDSGYSYETI [MAP1B_Y1921]

1. 0.777
2. 1.38

Okay, here is my list. What is phosphorylation enrichment for each of these?
1. SAEEDYMADAK [KCNT1_Y876]
2. IKEFKYGIEEH [GJA1_Y137_K134E]
3. ENAGYYFRISA

[1.36, 0.918, 1.48]

Okay, here is my list. What is phosphorylation enrichment for each of these?
1. PTEAQYRFIYM [PTPN11_Y511_Q506P]
2. VTVLDYDKIGK [SYT1_Y365]
3. GRSTCYWPRPR [GAGE12J_Y10_Y9C]

[2.2, 0.828, 0.686]

Okay, here is my list. What is phosphorylation enrichment for each of these?
1. PPSGEYFGQCG [TRIP6_Y275]
2. GIADDYDKKKP [EIF1_Y54_L59P]
3. EERNPYFSSAR [MCCC2_Y520_G517R_YF]
4. NMHSTYAKLAA [SEC22B_Y193]
5. YRDALYKSMVD [PHEX_Y250_F252S]
6. GAVDTYCRHNF [HLA-DRB1_Y107_A102G_YF]

1: 1.37; 2: 0.998; 3: 0.752; 4: 0.401; 5: 0.856; 6: 0.742

---

- TARGET OR TEST SYSTEM: SHP2-C SH2
- ASSAY DETAILS: SH2 binding enrichment of the phosphorylated peptide, bacterial display (enrichment ratio); higher = better substrate or ligand; peptides without Tyr show the background
Respond with met for SH2 binding enrichment values of 0.7 and above, not met for values below.

Recorded results for 10 sequences are shown here.
{"columns": ["SEQUENCE CONTENT", "TARGET OR TEST SYSTEM", "ASSIGNED LABEL"],
 "data": [
  ["TSFQMYDKGLV [IARS2_Y231_F227S_YF]", "SHP2-C SH2", "not met"],
  ["DISEPYEVFRI [IRF8_Y107_K108E_YF]", "SHP2-C SH2", "met"],
  ["TKGNEYVFRVA", "SHP2-C SH2", "met"],
  ["RDLTHYLMKIL [ACTG1_Y188_D187H]", "SHP2-C SH2", "met"],
  ["CTTSHYNFMCN [TP53_Y234_I232S_YF]", "SHP2-C SH2", "met"],
  ["QEGPEYWDGET [HLA-A_Y83_Q86G]", "SHP2-C SH2", "not met"],
  ["HFPDVYAWEQL [ALX3_Y181_R183W_YF]", "SHP2-C SH2", "not met"],
  ["SGPRRYTVAAL [TTR_Y125_I127V]", "SHP2-C SH2", "not met"],
  ["PTEAQYRFIYM [PTPN11_Y511_Q506P]", "SHP2-C SH2", "not met"],
  ["EPFKVYRIVPE [IRF8_Y110_YF]", "SHP2-C SH2", "not met"]
]}

Is SH2 binding enrichment at least 0.7? Consider RSDEDYLFREE [POR_Y573_YF]
not met

Is SH2 binding enrichment at least 0.7? Consider RPSELYFSKIG [SMG1_Y2253_YF]
met

Is SH2 binding enrichment at least 0.7? Consider GGGGSYNVFGN [HNRNPA1_Y312_D314V]
met
